system: ryanodine receptor; assay: FK506-induced Ca2+ leakage in sarcoplasmic reticulum derived from canine myocardium (fluo 3 indicator); assay type: biochemical; settings: FK506-induced leakage; polypeptide 0.1, 0.3 or 1.0 μM
quantity.measured: Ca2+ leakage inhibitory activity compared with R2P

MSV-RP2: M+2112-2149; addition of methionine, serine and valine to the N-terminal of R2P (MSVEDTINLLASLGQIRSLLSVRMGKEEEKLMIRGLGDI)	lower than that of R2P
RP1-30: hRyR2 amino acid Nos. 2114-2143; deletion of six amino acids at the C-terminal of R2P (EDTINLLASLGQIRSLLSVRMGKEEEKLMI)	lower than that of R2P
RP1-25: hRyR2 amino acid Nos. 2114-2138; deletion of 11 amino acids at the C-terminal of R2P (EDTINLLASLGQIRSLLSVRMGKEE)	lower than that of R2P
